Assay: Ulcerogenic activity in rat assessed as effect on parietal cells at 50 mg/kg by hematoxylin and eosin staining based assay
Type: toxicity, organism-based
Conditions: in vivo
Metric Name: Activity

> print(dat)
                                   compound  observed.value
1  N#CC1=C(N)OC(c2ccccc2)=CC1c1cn(-c2ccccc2)nc1-c1ccc(OCc2ccccc2)cc1 (centres undefined)           Toxic
2  Clc1ccc(-c2cc(-c3cn(-c4ccccc4)nc3-c3ccc(OCc4ccccc4)cc3)on2)cc1           Toxic
3  S=c1nc(-c2ccc(Cl)cc2)cc(-c2cn(-c3ccccc3)nc2-c2ccc(OCc3ccccc3)cc2)[nH]1           Toxic
4  Nc1nc(-c2ccccc2)cc(-c2cn(-c3ccccc3)nc2-c2ccc(OCc3ccccc3)cc2)n1           Toxic
5  COc1ccc2c(c1)c(CC(=O)O)c(C)n2C(=O)c1ccc(Cl)cc1           Toxic
6  CC(=O)n1nc(-c2ccccc2)cc1-c1cn(-c2ccccc2)nc1-c1ccc(OCc2ccccc2)cc1           Toxic
7  O=C(/C=C/c1cn(-c2ccccc2)nc1-c1ccc(OCc2ccccc2)cc1)c1ccc(Cl)cc1       Non-Toxic
8  Cc1ccc(-c2cc(C(F)(F)F)nn2-c2ccc(S(N)(=O)=O)cc2)cc1           Toxic
9  O=C(/C=C/c1cn(-c2ccccc2)nc1-c1ccc(OCc2ccccc2)cc1)c1ccccc1       Non-Toxic

---

Experiment: Nephrotoxicity in rat assessed as effect on proximal tubule at 50 mg/kg by hematoxylin and eosin staining based assay
Format: toxicity, organism-based
Conditions: in vivo
Metric Name: Activity

> print(dat)
                                   molecule  observed.value
1  COc1ccc2c(c1)c(CC(=O)O)c(C)n2C(=O)c1ccc(Cl)cc1           Toxic
2  CC(=O)n1nc(-c2ccccc2)cc1-c1cn(-c2ccccc2)nc1-c1ccc(OCc2ccccc2)cc1           Toxic
3  Clc1ccc(-c2cc(-c3cn(-c4ccccc4)nc3-c3ccc(OCc4ccccc4)cc3)on2)cc1           Toxic
4  N#CC1=C(N)OC(c2ccccc2)=CC1c1cn(-c2ccccc2)nc1-c1ccc(OCc2ccccc2)cc1 (centres undefined)           Toxic
5  S=c1nc(-c2ccc(Cl)cc2)cc(-c2cn(-c3ccccc3)nc2-c2ccc(OCc3ccccc3)cc2)[nH]1           Toxic
6  Cc1ccc(-c2cc(C(F)(F)F)nn2-c2ccc(S(N)(=O)=O)cc2)cc1           Toxic
7  O=C(/C=C/c1cn(-c2ccccc2)nc1-c1ccc(OCc2ccccc2)cc1)c1ccc(Cl)cc1       Non-Toxic
8  O=C(/C=C/c1cn(-c2ccccc2)nc1-c1ccc(OCc2ccccc2)cc1)c1ccccc1       Non-Toxic
9  Nc1nc(-c2ccccc2)cc(-c2cn(-c3ccccc3)nc2-c2ccc(OCc3ccccc3)cc2)n1           Toxic

---

Test system: Rattus norvegicus
Assay: Anti-inflammatory activity in albino rat model of carrageenan-induced paw edema assessed as inhibition of carrageenan-induced paw edema at 100 mg/kg, po administered as single dose prior to carrageenan challenge measured after 12 hrs relative to control
Assay type: functional
Binned inhibition in vivo at 100 mg/kg; ranges: bottom (below 30%), middle (30% to below 40%), top (40% or more)

> print(dat)
                                   compound  class.label
1  CC(=O)n1nc(-c2ccccc2)cc1-c1cn(-c2ccccc2)nc1-c1ccc(OCc2ccccc2)cc1          top
2  O=C(/C=C/c1cn(-c2ccccc2)nc1-c1ccc(OCc2ccccc2)cc1)c1ccc(Cl)cc1          top
3  Clc1ccc(-c2cc(-c3cn(-c4ccccc4)nc3-c3ccc(OCc4ccccc4)cc3)on2)cc1          top
4  COc1ccc2c(c1)c(CC(=O)O)c(C)n2C(=O)c1ccc(Cl)cc1 [INDOMETHACIN]          top
5  Cc1ccc(-c2cc(C(F)(F)F)nn2-c2ccc(S(N)(=O)=O)cc2)cc1 [CELECOXIB]       middle
6  N#CC1=C(N)OC(c2ccccc2)=CC1c1cn(-c2ccccc2)nc1-c1ccc(OCc2ccccc2)cc1 (centres undefined)       bottom
7  Nc1nc(-c2ccccc2)cc(-c2cn(-c3ccccc3)nc2-c2ccc(OCc3ccccc3)cc2)n1       middle
8  S=c1nc(-c2ccc(Cl)cc2)cc(-c2cn(-c3ccccc3)nc2-c2ccc(OCc3ccccc3)cc2)[nH]1       bottom
9  O=C(/C=C/c1cn(-c2ccccc2)nc1-c1ccc(OCc2ccccc2)cc1)c1ccccc1       middle

---

Test: Ulcerogenic activity in rat assessed as effect on gastric submucosa at 50 mg/kg by hematoxylin and eosin staining based assay
Assay type: toxicity, organism-based
Settings: in vivo
Metric Name: Activity

> print(dat)
                                   molecule  metric.name  observed.value
1  S=c1nc(-c2ccc(Cl)cc2)cc(-c2cn(-c3ccccc3)nc2-c2ccc(OCc3ccccc3)cc2)[nH]1     Activity           Toxic
2  N#CC1=C(N)OC(c2ccccc2)=CC1c1cn(-c2ccccc2)nc1-c1ccc(OCc2ccccc2)cc1 (centres undefined)     Activity           Toxic
3  O=C(/C=C/c1cn(-c2ccccc2)nc1-c1ccc(OCc2ccccc2)cc1)c1ccccc1     Activity       Non-Toxic
4  Cc1ccc(-c2cc(C(F)(F)F)nn2-c2ccc(S(N)(=O)=O)cc2)cc1 [CELECOXIB]     Activity           Toxic
5  O=C(/C=C/c1cn(-c2ccccc2)nc1-c1ccc(OCc2ccccc2)cc1)c1ccc(Cl)cc1     Activity       Non-Toxic
6  Nc1nc(-c2ccccc2)cc(-c2cn(-c3ccccc3)nc2-c2ccc(OCc3ccccc3)cc2)n1     Activity           Toxic
7  Clc1ccc(-c2cc(-c3cn(-c4ccccc4)nc3-c3ccc(OCc4ccccc4)cc3)on2)cc1     Activity           Toxic
8  COc1ccc2c(c1)c(CC(=O)O)c(C)n2C(=O)c1ccc(Cl)cc1 [INDOMETHACIN]     Activity           Toxic
9  CC(=O)n1nc(-c2ccccc2)cc1-c1cn(-c2ccccc2)nc1-c1ccc(OCc2ccccc2)cc1     Activity           Toxic

---

Assay: Nephrotoxicity in rat assessed as effect on glomeruli at 50 mg/kg surrounded by Bowmann's capsule by hematoxylin and eosin staining based assay
Assay type: toxicity, organism-based
Conditions: in vivo
Metric Name: Activity

> print(dat)
                                   molecule  observed.value
1  Clc1ccc(-c2cc(-c3cn(-c4ccccc4)nc3-c3ccc(OCc4ccccc4)cc3)on2)cc1           Toxic
2  S=c1nc(-c2ccc(Cl)cc2)cc(-c2cn(-c3ccccc3)nc2-c2ccc(OCc3ccccc3)cc2)[nH]1           Toxic
3  CC(=O)n1nc(-c2ccccc2)cc1-c1cn(-c2ccccc2)nc1-c1ccc(OCc2ccccc2)cc1           Toxic
4  O=C(/C=C/c1cn(-c2ccccc2)nc1-c1ccc(OCc2ccccc2)cc1)c1ccc(Cl)cc1       Non-Toxic
5  O=C(/C=C/c1cn(-c2ccccc2)nc1-c1ccc(OCc2ccccc2)cc1)c1ccccc1       Non-Toxic
6  N#CC1=C(N)OC(c2ccccc2)=CC1c1cn(-c2ccccc2)nc1-c1ccc(OCc2ccccc2)cc1 (centres undefined)           Toxic
7  COc1ccc2c(c1)c(CC(=O)O)c(C)n2C(=O)c1ccc(Cl)cc1           Toxic
8  Nc1nc(-c2ccccc2)cc(-c2cn(-c3ccccc3)nc2-c2ccc(OCc3ccccc3)cc2)n1           Toxic
9  Cc1ccc(-c2cc(C(F)(F)F)nn2-c2ccc(S(N)(=O)=O)cc2)cc1           Toxic

---

Assay: Hepatotoxicity in rat assessed as effect on hepatocytes in periportal area at 50 mg/kg by hematoxylin and eosin staining based assay
Format: toxicity, organism-based
Details: in vivo
Metric Name: Activity

> print(dat)
                            smiles.notation  metric.name  observed.value
1  O=C(/C=C/c1cn(-c2ccccc2)nc1-c1ccc(OCc2ccccc2)cc1)c1ccccc1     Activity       Non-Toxic
2  O=C(/C=C/c1cn(-c2ccccc2)nc1-c1ccc(OCc2ccccc2)cc1)c1ccc(Cl)cc1     Activity       Non-Toxic
3  Cc1ccc(-c2cc(C(F)(F)F)nn2-c2ccc(S(N)(=O)=O)cc2)cc1     Activity           Toxic
4  S=c1nc(-c2ccc(Cl)cc2)cc(-c2cn(-c3ccccc3)nc2-c2ccc(OCc3ccccc3)cc2)[nH]1     Activity           Toxic
5  Clc1ccc(-c2cc(-c3cn(-c4ccccc4)nc3-c3ccc(OCc4ccccc4)cc3)on2)cc1     Activity           Toxic
